The measurements presented in this section are drawn from paper PMC9906736.

System: MCF-7 cells
ASSAY_DETAILS: Concentration-dependent cellular uptake into MCF-7 cells at various pH, with and without Na+
Format: cell-based, human
EXPERIMENTAL_CONDITIONS: pH 8.5, read-out: Km(uM)@pH8.5

COMPOUND: COc1cc(/C=C/C(=O)Nc2cccc(C[C@H](N)C(=O)O)c2)ccc1O
MEASURED_TARGET: MCF-7 cells
Km / µM: 184

COMPOUND: COc1cc(/C=C/C(=O)NCc2cccc(C[C@H](N)C(=O)O)c2)ccc1O
MEASURED_TARGET: MCF-7 cells
Km / µM: 225

COMPOUND: N[C@@H](Cc1cccc(C(=O)OCc2ccc(-c3ccc(-c4ccc5c(c4)COC5=O)s3)cc2)c1)C(=O)O
MEASURED_TARGET: MCF-7 cells
Km / µM: 412

COMPOUND: CC(C(=O)Nc1ccc(C[C@H](N)C(=O)O)cc1)c1cccc(C(=O)c2ccccc2)c1 (some centres unmarked)
MEASURED_TARGET: MCF-7 cells
Km / µM: 131

COMPOUND: CC(C(=O)Nc1cccc(C[C@H](N)C(=O)O)c1)c1cccc(C(=O)c2ccccc2)c1 (some centres unmarked)
MEASURED_TARGET: MCF-7 cells
Km / µM: 291

COMPOUND: CC(C(=O)NCc1cccc(C[C@H](N)C(=O)O)c1)c1cccc(C(=O)c2ccccc2)c1 (some centres unmarked)
MEASURED_TARGET: MCF-7 cells
Km / µM: 40

COMPOUND: CC(C(=O)NCC[C@H](N)C(=O)O)c1cccc(C(=O)c2ccccc2)c1 (some centres unmarked)
MEASURED_TARGET: MCF-7 cells
Km / µM: 422

COMPOUND: CC(C(=O)NCCCC[C@H](N)C(=O)O)c1cccc(C(=O)c2ccccc2)c1 (some centres unmarked)
MEASURED_TARGET: MCF-7 cells
Km / µM: 102
